Source of measurements: BigSolDB 2.1

# CONDITION_DESCRIPTION: in acetone, 318.15 K
MEASURED_ENDPOINT: solubility (mole fraction)

Data request: Would you kindly share the measured solubility (mole fraction) for `CNC(=O)c1cc(Oc2ccc(N)cc2)ccn1` ?
Data returned: 0.0975

====

# CONDITION_DESCRIPTION: in methanol, 313.15 K
MEASURED_ENDPOINT: solubility (mole fraction)
The answer should be a number; do not append a unit.

Data request: Would you kindly share the measured solubility (mole fraction) for `CNC(=O)c1cc(Oc2ccc(N)cc2)ccn1` ?
Data returned: 0.0642

====

# CONDITION_DESCRIPTION: in dichloromethane, 318.15 K
MEASURED_ENDPOINT: solubility (mole fraction)
The answer should be a number; do not append a unit.

Data request: Would you kindly share the measured solubility (mole fraction) for `CNC(=O)c1cc(Oc2ccc(N)cc2)ccn1` ?
Data returned: 0.0947

====

# CONDITION_DESCRIPTION: in dichloromethane, 298.15 K
MEASURED_ENDPOINT: solubility (mole fraction)
The answer should be a number; do not append a unit.

Data request: Would you kindly share the measured solubility (mole fraction) for `CNC(=O)c1cc(Oc2ccc(N)cc2)ccn1` ?
Data returned: 0.0297

====

# CONDITION_DESCRIPTION: in acetone, 303.15 K
MEASURED_ENDPOINT: solubility (mole fraction)
The answer should be a number; do not append a unit.

Data request: Would you kindly share the measured solubility (mole fraction) for `CNC(=O)c1cc(Oc2ccc(N)cc2)ccn1` ?
Data returned: 0.0683

====

# CONDITION_DESCRIPTION: in acetylacetone, 278.15 K
MEASURED_ENDPOINT: solubility (mole fraction)
The answer should be a number; do not append a unit.

Data request: Would you kindly share the measured solubility (mole fraction) for `CNC(=O)c1cc(Oc2ccc(N)cc2)ccn1` ?
Data returned: 0.0202

====

# CONDITION_DESCRIPTION: in acetylacetone, 288.15 K
MEASURED_ENDPOINT: solubility (mole fraction)
The answer should be a number; do not append a unit.

Data request: Would you kindly share the measured solubility (mole fraction) for `CNC(=O)c1cc(Oc2ccc(N)cc2)ccn1` ?
Data returned: 0.0232

====

# CONDITION_DESCRIPTION: in acetone, 313.15 K
MEASURED_ENDPOINT: solubility (mole fraction)

Data request: Would you kindly share the measured solubility (mole fraction) for `CNC(=O)c1cc(Oc2ccc(N)cc2)ccn1` ?
Data returned: 0.086

====

# CONDITION_DESCRIPTION: in dichloromethane, 293.15 K
MEASURED_ENDPOINT: solubility (mole fraction)
The answer should be a number; do not append a unit.

Data request: Would you kindly share the measured solubility (mole fraction) for `CNC(=O)c1cc(Oc2ccc(N)cc2)ccn1` ?
Data returned: 0.0211

====

# CONDITION_DESCRIPTION: in n-butanol, 278.15 K
MEASURED_ENDPOINT: solubility (mole fraction)
The answer should be a number; do not append a unit.

Data request: Would you kindly share the measured solubility (mole fraction) for `CNC(=O)c1cc(Oc2ccc(N)cc2)ccn1` ?
Data returned: 0.0041

====

# CONDITION_DESCRIPTION: in ethyl acetate, 293.15 K
MEASURED_ENDPOINT: solubility (mole fraction)
The answer should be a number; do not append a unit.

Data request: Would you kindly share the measured solubility (mole fraction) for `CNC(=O)c1cc(Oc2ccc(N)cc2)ccn1` ?
Data returned: 0.0939
